details: in 2-butoxyethanol, 308.15 K
observable: solubility (mole fraction)

1) COc1ccc(C(=O)O)c(OC)c1OC 0.185

====

settings: in ethylene glycol, 283.15 K
observable: solubility (mole fraction)

1) COc1ccc(C(=O)O)c(OC)c1OC 0.0188

====

details: in n-propanol, 283.15 K
observable: solubility (mole fraction)

1. COc1ccc(C(=O)O)c(OC)c1OC 0.0405

====

conditions: in isopropyl acetate, 303.15 K
observable: solubility (mole fraction)

1) COc1ccc(C(=O)O)c(OC)c1OC 0.0892

====

details: in n-butyl acetate, 318.15 K
observable: solubility (mole fraction)

1. COc1ccc(C(=O)O)c(OC)c1OC 0.168

====

conditions: in n-propyl acetate, 318.15 K
observable: solubility (mole fraction)

1) COc1ccc(C(=O)O)c(OC)c1OC 0.189

====

conditions: in n-propanol, 318.15 K
observable: solubility (mole fraction)

1) COc1ccc(C(=O)O)c(OC)c1OC 0.189

====

details: in n-propanol, 313.15 K
observable: solubility (mole fraction)

1. COc1ccc(C(=O)O)c(OC)c1OC 0.161

====

conditions: in ethyl acetate, 318.15 K
observable: solubility (mole fraction)

1. COc1ccc(C(=O)O)c(OC)c1OC 0.301

====

details: in isopropyl acetate, 283.15 K
observable: solubility (mole fraction)

1. COc1ccc(C(=O)O)c(OC)c1OC 0.0495

====

conditions: in 2-methoxyethanol, 308.15 K
observable: solubility (mole fraction)

1) COc1ccc(C(=O)O)c(OC)c1OC 0.233

====

details: in isopropanol, 283.15 K
observable: solubility (mole fraction)

1. COc1ccc(C(=O)O)c(OC)c1OC 0.0363

====

conditions: in isopropanol, 303.15 K
observable: solubility (mole fraction)

1) COc1ccc(C(=O)O)c(OC)c1OC 0.102

====

conditions: in ethylene glycol, 318.15 K
observable: solubility (mole fraction)

1) COc1ccc(C(=O)O)c(OC)c1OC 0.0828

====

settings: in 2-methoxyethanol, 288.15 K
observable: solubility (mole fraction)

1) COc1ccc(C(=O)O)c(OC)c1OC 0.154

====

conditions: in 2-butoxyethanol, 313.15 K
observable: solubility (mole fraction)

1) COc1ccc(C(=O)O)c(OC)c1OC 0.207

====

conditions: in ethanol, 298.15 K
observable: solubility (mole fraction)

1. COc1ccc(C(=O)O)c(OC)c1OC 0.116

====

conditions: in water, 318.15 K
observable: solubility (mole fraction)

1) COc1ccc(C(=O)O)c(OC)c1OC 0.00152

====

details: in 2-ethoxyethanol, 303.15 K
observable: solubility (mole fraction)

1. COc1ccc(C(=O)O)c(OC)c1OC 0.318

====

conditions: in n-propyl acetate, 308.15 K
observable: solubility (mole fraction)

1. COc1ccc(C(=O)O)c(OC)c1OC 0.13

====

details: in 2-butoxyethanol, 293.15 K
observable: solubility (mole fraction)

1) COc1ccc(C(=O)O)c(OC)c1OC 0.127

====

details: in 2-ethoxyethanol, 288.15 K
observable: solubility (mole fraction)

1) COc1ccc(C(=O)O)c(OC)c1OC 0.238

====

conditions: in ethanol, 293.15 K
observable: solubility (mole fraction)

1. COc1ccc(C(=O)O)c(OC)c1OC 0.0926

====

details: in n-butyl acetate, 293.15 K
observable: solubility (mole fraction)

1) COc1ccc(C(=O)O)c(OC)c1OC 0.0751

====

conditions: in 2-ethoxyethanol, 313.15 K
observable: solubility (mole fraction)

1) COc1ccc(C(=O)O)c(OC)c1OC 0.39

====

details: in ethyl acetate, 288.15 K
observable: solubility (mole fraction)

1. COc1ccc(C(=O)O)c(OC)c1OC 0.0992

====

details: in n-propyl acetate, 313.15 K
observable: solubility (mole fraction)

1. COc1ccc(C(=O)O)c(OC)c1OC 0.162

====

conditions: in isopropanol, 308.15 K
observable: solubility (mole fraction)

1. COc1ccc(C(=O)O)c(OC)c1OC 0.129

====

conditions: in 2-butoxyethanol, 278.15 K
observable: solubility (mole fraction)

1. COc1ccc(C(=O)O)c(OC)c1OC 0.0838

====

settings: in isopropanol, 293.15 K
observable: solubility (mole fraction)

1) COc1ccc(C(=O)O)c(OC)c1OC 0.069

====

conditions: in 2-ethoxyethanol, 283.15 K
observable: solubility (mole fraction)

1. COc1ccc(C(=O)O)c(OC)c1OC 0.207

====

settings: in isopropyl acetate, 313.15 K
observable: solubility (mole fraction)

1. COc1ccc(C(=O)O)c(OC)c1OC 0.115

====

conditions: in n-propanol, 278.15 K
observable: solubility (mole fraction)

1. COc1ccc(C(=O)O)c(OC)c1OC 0.0312

====

details: in isopropyl acetate, 288.15 K
observable: solubility (mole fraction)

1) COc1ccc(C(=O)O)c(OC)c1OC 0.0584

====

conditions: in ethylene glycol, 278.15 K
observable: solubility (mole fraction)

1) COc1ccc(C(=O)O)c(OC)c1OC 0.0165

====

conditions: in n-butyl acetate, 308.15 K
observable: solubility (mole fraction)

1. COc1ccc(C(=O)O)c(OC)c1OC 0.12

====

details: in n-butyl acetate, 288.15 K
observable: solubility (mole fraction)

1. COc1ccc(C(=O)O)c(OC)c1OC 0.0673

====

settings: in ethanol, 283.15 K
observable: solubility (mole fraction)

1) COc1ccc(C(=O)O)c(OC)c1OC 0.0585

====

details: in ethyl acetate, 308.15 K
observable: solubility (mole fraction)

1. COc1ccc(C(=O)O)c(OC)c1OC 0.236

====

conditions: in isopropyl acetate, 308.15 K
observable: solubility (mole fraction)

1) COc1ccc(C(=O)O)c(OC)c1OC 0.0988

====

conditions: in 2-butoxyethanol, 283.15 K
observable: solubility (mole fraction)

1) COc1ccc(C(=O)O)c(OC)c1OC 0.0944

====

details: in water, 283.15 K
observable: solubility (mole fraction)

1. COc1ccc(C(=O)O)c(OC)c1OC 0.000419

====

conditions: in n-propyl acetate, 293.15 K
observable: solubility (mole fraction)

1. COc1ccc(C(=O)O)c(OC)c1OC 0.0722
